Listing of recorded half-life at 1 µM by entry.
PROCEDURE DETAILS: Half life in human liver microsome at 1 uM in presence of NADPH incubated up to 60 mins by HPLC-MS/MS analysis
Type: ADME
CONDITIONS USED: liver microsomes

>>> measured_result("CCCCOC(=O)NS(=O)(=O)c1sc(CC(C)C)nc1-c1ccc(Cn2ccnc2)cc1")
"> 1 h"
>>> measured_result("CCCCOC(=O)NS(=O)(=O)c1sc(CC(C)C)nc1-c1ccc(Cn2ccnc2C(C)(C)C)cc1")
"0.75 h"
>>> measured_result("COC(=O)NS(=O)(=O)c1sc(CC(C)C)nc1-c1ccc(Cn2ccnc2)cc1")
"> 1 h"

We now examine a further molecule.
Quick check: half-life at 1 µM of CCCCOC(=O)NS(=O)(=O)c1sc(CC(C)C)nc1-c1ccc(Cn2ccnc2C2CC2)cc1 ?
> 1 h
